B1: HDV Ribozyme (parent)
chain: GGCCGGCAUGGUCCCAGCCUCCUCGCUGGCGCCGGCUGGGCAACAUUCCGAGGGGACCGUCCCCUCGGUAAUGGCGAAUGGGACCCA

# Variants of: B1
# experiment-summary: self-cleavage, relative activity (ratio to wild type); higher = more cleavage; co-transcriptional
value-type: self-cleavage
Simply state the number, no unit and no words.

mutation_list="C7A U79C" assay_value=0.128
mutation_list="C14G C19G" assay_value=0.0449
mutation_list="G40C G76U" assay_value=0.346
mutation_list="C19U C32A" assay_value=0.0361
mutation_list="C4G A87G" assay_value=0.0715

## Task Look up self-cleavage: G25A A42G
## Result 0.158

## Task Look up self-cleavage: G31C G74U
## Result 0.143

## Task Look up self-cleavage: U9C A70C
## Result 0.997

## Task Look up self-cleavage: C62U C66A
## Result 0.815

## Task Look up self-cleavage: G73A G80U
## Result 0.153
